- measured.target: T1, mαvβ5 (Mus musculus, UniProt O70309+P43406)
- T1 construct: The full extracellular domains for all α and β integrin subunits; (GGGS)3 linker (C); acidic coiled-coil with cysteine (C); GG-Avitag (C); hexa-histidine tag (C); basic coiled-coil with cysteine (C); made in house; host or cells: Expi293 cells
- T1 sequence (P43406 31-988 limits assumed): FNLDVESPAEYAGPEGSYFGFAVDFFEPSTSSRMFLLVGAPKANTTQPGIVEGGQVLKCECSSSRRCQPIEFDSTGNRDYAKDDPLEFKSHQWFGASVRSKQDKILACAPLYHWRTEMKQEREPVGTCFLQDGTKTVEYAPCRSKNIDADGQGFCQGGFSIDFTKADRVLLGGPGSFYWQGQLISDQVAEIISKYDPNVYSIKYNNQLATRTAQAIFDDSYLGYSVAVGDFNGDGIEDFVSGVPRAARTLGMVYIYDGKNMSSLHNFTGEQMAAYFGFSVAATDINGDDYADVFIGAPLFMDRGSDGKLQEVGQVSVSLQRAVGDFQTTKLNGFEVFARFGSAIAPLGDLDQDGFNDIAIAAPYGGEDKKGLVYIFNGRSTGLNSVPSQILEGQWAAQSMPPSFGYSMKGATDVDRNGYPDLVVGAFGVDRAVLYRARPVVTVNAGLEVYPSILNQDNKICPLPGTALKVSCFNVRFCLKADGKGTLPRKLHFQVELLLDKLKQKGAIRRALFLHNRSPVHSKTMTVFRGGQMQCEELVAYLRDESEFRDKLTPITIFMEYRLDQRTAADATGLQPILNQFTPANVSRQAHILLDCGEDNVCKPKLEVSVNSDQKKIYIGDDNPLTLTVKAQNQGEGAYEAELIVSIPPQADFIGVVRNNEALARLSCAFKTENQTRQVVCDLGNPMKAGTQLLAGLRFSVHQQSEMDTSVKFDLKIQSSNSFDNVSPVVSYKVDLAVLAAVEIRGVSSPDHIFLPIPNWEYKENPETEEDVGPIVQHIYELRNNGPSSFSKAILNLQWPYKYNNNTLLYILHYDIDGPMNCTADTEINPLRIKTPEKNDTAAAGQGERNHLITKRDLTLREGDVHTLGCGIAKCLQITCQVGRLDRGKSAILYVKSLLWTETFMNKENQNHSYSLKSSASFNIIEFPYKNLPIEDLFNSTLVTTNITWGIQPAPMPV
- T1 sequence (O70309 24-719 limits assumed): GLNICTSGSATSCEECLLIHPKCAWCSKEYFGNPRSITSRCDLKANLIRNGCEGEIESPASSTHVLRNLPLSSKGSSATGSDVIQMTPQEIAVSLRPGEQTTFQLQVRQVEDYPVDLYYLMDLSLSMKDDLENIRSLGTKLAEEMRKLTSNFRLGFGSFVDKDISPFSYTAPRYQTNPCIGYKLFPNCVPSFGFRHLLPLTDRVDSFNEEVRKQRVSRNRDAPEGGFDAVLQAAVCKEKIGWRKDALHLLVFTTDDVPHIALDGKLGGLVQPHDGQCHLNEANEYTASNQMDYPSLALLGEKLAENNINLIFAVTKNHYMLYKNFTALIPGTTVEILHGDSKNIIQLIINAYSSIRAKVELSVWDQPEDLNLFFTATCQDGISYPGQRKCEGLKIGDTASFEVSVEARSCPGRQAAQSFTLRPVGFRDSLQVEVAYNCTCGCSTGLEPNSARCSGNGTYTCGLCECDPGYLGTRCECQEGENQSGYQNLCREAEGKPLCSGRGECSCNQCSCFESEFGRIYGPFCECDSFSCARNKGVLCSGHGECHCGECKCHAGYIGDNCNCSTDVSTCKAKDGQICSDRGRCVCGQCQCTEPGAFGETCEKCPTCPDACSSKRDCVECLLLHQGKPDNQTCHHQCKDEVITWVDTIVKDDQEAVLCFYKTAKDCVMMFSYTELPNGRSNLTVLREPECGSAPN
- method.description: Mouse AlphaLISA integrin-ligand blocking assay (vitronectin)
- Type: biochemical
- test.parameters: Table 12; read-out: IC50 Mouse integrin AlphaLISA assays mαvβ5
pIC50: −log10 of the molar value.

[
  {
    "molecule": "Ab-30: integrin binder antibody, VH SEQ ID NO: 33, VL SEQ ID NO: 34 (antibody, V domains shown) VH: EVQLQESGPGLVKPSETLSLTCAVSGYSISSGYYWGWIRQPPGKGLEWIGSIYHSGNTYYNPSLKSRVTISVDTSKNQFSLKLSSVTAADTAVYYCARVPRYSRGDAYYYYGMDVWGQGTTVTVSS VL: DIQMTQSPSTLSASVGDRVTITCRASQSISSWLAWYQQKPGKAPKLLIYKASSLESGVPSRFSGSGSGTEFTLTISSLQPDDFATYYCQQVKIYPPYTFGGGTKVEIK",
    "pIC50": "< 6.60"
  }
]
